B1: Dystrobrevin alpha, residues 235 to 294; numbered along this chain, Q9Y4J8 (parent)
chain: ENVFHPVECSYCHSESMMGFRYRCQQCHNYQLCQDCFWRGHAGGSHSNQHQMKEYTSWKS

- Variants of: B1
- PROTOCOL_DESCRIPTION: abundance fitness (aPCA) (normalised: wild type 0, dead -1); higher = more abundant; growth selection in yeast, the domain comes from the species named
- SETUP_CONDITIONS: Homo sapiens
REPORTED_METRIC: abundance fitness
Numbers only.

# batch size: 2; output abundance fitness per entry
1. ENVDHPVECSYCHSESMMGFRYRCQQCHNYQLCQDCFWRGHAGGSHSNQHQMKEYTSWKS [F4D]
2. ENVFHPVECSYCHSESMMGFRYVCQQCHNYQLCQDCFWRGHAGGSHSNQHQMKEYTSWKS [R23V]

1: 0.108; 2: 0.074
